- Target Of Assay: UniProtKB Q92843
- Test Method Notes: Bcl-W/Bim binding regulators – biochemical, multiplexed, bead-based flow cytometry, fluorescence, dose response (AID 1330)
- Conditions: inactive by the depositor's call
Consider the following compounds; for each one, report its pEC50.
FYI, pEC50 means -log10 of a concentration in mol per litre.

# input Read the entry "CCOC(=O)c1c(NC(C)=O)sc2c(O)c(Br)cc(Br)c12" and write its reported pEC50.
# output 4.39

# input Read the entry "Cc1cc(-c2nnc3n2N=C(c2ccc(-c4ccccc4)cc2)CS3)[nH]n1" and write its reported pEC50.
# output 5.12

# input Read the entry "O=C(/C=C\c1ccc(-c2ccccc2)o1)c1ccccc1" and write its reported pEC50.
# output 4.98

# input Read the entry "CN(N=C/C=C/c1ccccc1)C1=NS(=O)(=O)c2ccccc21" and write its reported pEC50.
# output 5.44

# input Read the entry "COCCNC(=S)Nc1cc(OC)c(OC)cc1C#N" and write its reported pEC50.
# output 4.84

# input Read the entry "Cc1ccc(C)c(/C=C/C(=O)c2ccccc(=O)c2O)c1" and write its reported pEC50.
# output 5.07

# input Read the entry "Cc1ccnc(Nc2nc(-c3c(C)nc4sccn34)cs2)c1" and write its reported pEC50.
# output 4.80

# input Read the entry "O=S1(=O)N=C(N(CCO)N=C/C=C/c2ccccc2)c2ccccc21" and write its reported pEC50.
# output 4.69

# input Read the entry "Cc1cc(C)nc(SCc2cc(=O)c(OC(=O)c3ccc(Cl)c([N+](=O)[O-])c3)co2)n1" and write its reported pEC50.
# output 5.21

# input Read the entry "CSc1nnc2c3cc(C)ccc3n(Cc3ccccc3)c2n1" and write its reported pEC50.
# output 4.53

# input Read the entry "Oc1ccc(NCc2ccccc2OCc2ccccc2)cc1" and write its reported pEC50.
# output 5.53

###

- Target Of Assay: Bcl-2-like protein 2 (Homo sapiens)
- Sequence (Q92843 whole entry): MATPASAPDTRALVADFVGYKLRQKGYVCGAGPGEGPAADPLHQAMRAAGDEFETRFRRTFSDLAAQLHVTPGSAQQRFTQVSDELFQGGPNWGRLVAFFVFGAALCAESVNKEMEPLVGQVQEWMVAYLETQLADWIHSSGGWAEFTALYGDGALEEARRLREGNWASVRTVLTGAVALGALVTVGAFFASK
- Test Method Notes: Bcl-W/Bim binding regulators – biochemical, multiplexed, bead-based flow cytometry, fluorescence, dose response (AID 1330)
- Conditions: inactive by the depositor's call
Value Kind: EC50

# input Read the entry "COc1ccccc1NC1=C(NC(C)=O)C(=O)c2ccccc2C1=O" and write its reported EC50.
# output 4 µM

# input Read the entry "Cc1cc2n(c1)CCn1c(C)ccc1-2" and write its reported EC50.
# output 13.6 µM

# input Read the entry "CCN(CC)c1ccc(-c2nn3c(-c4cccnc4)nnc3s2)cc1" and write its reported EC50.
# output 12 µM

# input Read the entry "COc1ccc(-n2c(=O)c3ccccc3c3ccccc3c2=O)c(OC)c1" and write its reported EC50.
# output 16.3 µM

# input Read the entry "CCOCCCNc1nc(S)nc2cc(OC)c(OC)cc12" and write its reported EC50.
# output 2.2 µM

# input Read the entry "Clc1nc(NCc2cccnc2)nc(N2CCOCC2)n1" and write its reported EC50.
# output 18.5 µM

# input Read the entry "Cc1ccc(/C=C/C(=O)c2ccccc(=O)c2O)cc1C" and write its reported EC50.
# output 27.9 µM

# input Read the entry "CN(N=Cc1cccnc1)C1=NS(=O)(=O)c2ccccc21" and write its reported EC50.
# output 17.3 µM

# input Read the entry "CCN(CC)c1ccc(Nc2nc(N3CCOCC3)c3ccccc3n2)cc1" and write its reported EC50.
# output 4.71 µM

# input Read the entry "COCCCn1c(N)c(C(=O)Nc2sc3c(c2C(=O)OC)CCCC3)c2nc3ccccc3nc21" and write its reported EC50.
# output 2.34 µM

# input Read the entry "CCOc1cccc(CNc2ccc(O)cc2)c1OCc1ccccc1Cl" and write its reported EC50.
# output 6.13 µM

Just for reference, BindingDB's records for doi:10.7270/Q2BR8QM3 is where these values come from.
